system: SW872 (Other Solid Carcinomas); test: combination Emax (second highest fraction inhibited in the dose matrix, 72 h); higher = more inhibition; extreme values may be limits of the assay
quantityMeasured: combination Emax
Give only the figure.

compound	combination Emax
Cn1cnc2c(F)c(Nc3ccc(Br)cc3Cl)c(C(=O)NOCCO)cc21 [Selumetinib] + C[C@@H]1COCCN1C2=NC(=NC(=C2)C3(CC3)[S@](=N)(=O)C)C4=C5C=CNC5=NC=C4 [AZD6738] (first compound max 10 µM, 7x7, partner max 10 µM)	0.276

Please look at the following compound next.
Quick check: combination Emax of N#Cc1cnc(Nc2cc(NC[C@H]3CNCCO3)c(C(F)(F)F)cn2)cn1 [SRA737] + CCc1c2c(nc3ccc(O)cc13)-c1cc3c(c(=O)n1C2)COC(=O)[C@]3(O)CC [SN-38] (first compound max 10 µM, 7x7, partner max 0.3 µM) ?
0.947
